test system: rice; assay: Test C flooded paddy test; assay type: in vivo, Oryza sativa; details: 62 g ai/ha, scale 0 to 100
metric.name: Rice plant response rating

INSERT INTO results (compound, tgt, quantitative_readout) VALUES
  ('CCN1N=C(C(C)(C)C)CC1C(=O)Nc1cc(C(=O)N2CCCCC2)ccc1F (racemic)', 'rice', 0),
  ('Cc1nn(C(C)(C)C)cc1C(=O)Nc1cc(C(=O)N(C)C)ccc1F', 'rice', 0),
  ('C#CCNC(=O)c1cccc(NC(=O)c2nn(C(C)(C)C)nc2CC)c1', 'rice', 45),
  ('C#CCNC(=O)c1ccc(F)c(NC(=O)c2cc(C3(C)CC3)nn2CC)c1', 'rice', 0),
  ('CCn1nc(C(C)(C)C)cc1C(=O)Nc1cccc(OC(F)(F)C(F)F)c1', 'rice', 0),
  ('CCc1nn(C(C)C)nc1C(=O)Nc1cccc(C(=O)N2CC=CC2)c1', 'rice', 20);
